Cited source for all entries: ChEMBL document CHEMBL1135887

- testSystem: Muscarinic acetylcholine receptor M2 (Homo sapiens) (UniProt P08172)
- Sequence (P08172 whole entry): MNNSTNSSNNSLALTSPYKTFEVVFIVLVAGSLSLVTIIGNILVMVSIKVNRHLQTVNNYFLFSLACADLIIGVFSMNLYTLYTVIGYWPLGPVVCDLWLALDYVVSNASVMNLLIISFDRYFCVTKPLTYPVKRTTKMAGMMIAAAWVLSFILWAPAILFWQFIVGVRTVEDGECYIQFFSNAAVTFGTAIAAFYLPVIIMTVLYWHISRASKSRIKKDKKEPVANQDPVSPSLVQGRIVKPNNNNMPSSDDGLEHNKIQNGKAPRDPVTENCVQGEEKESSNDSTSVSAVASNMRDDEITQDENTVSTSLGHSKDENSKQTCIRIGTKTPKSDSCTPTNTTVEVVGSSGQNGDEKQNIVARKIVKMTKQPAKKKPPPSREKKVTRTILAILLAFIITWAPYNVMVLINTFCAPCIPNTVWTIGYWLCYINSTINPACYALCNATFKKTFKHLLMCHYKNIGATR
- procedureText: Logarithm of affinity (log 1/M) at the (N-methyl Scopolamine) NMS-liganded muscarinic acetylcholine receptor M2 by using semiquantitative equilibrium and off-rate assay
readoutName: Log 1/M

* COc1cccc2c1c1c3c(cc4c1n2C(=O)CC4(C)C)CNCC3 | 6.16
* COc1cccc2c1c1c3c(cc4c1n2C(=O)CC4)CNCC3 | 6.7
* COC(=O)c1c2c(c3c4cc(OC)c(OC)cc4n4c3c1CCC4=O)CCNC2 | 6.37
* COC(=O)c1cccc2c1c1c3c(cc4c1n2C(=O)CC4)CNCC3 | 5.82
* O=C(O)c1ccc2c(c1)c1c3c(cc4c1n2C(=O)CC4)CNCC3 | 5.6
* COC(=O)c1ccc2c(c1)c1c3c(cc4c1n2C(=O)CC4)CNCC3 | 6.43
* O=C1CCc2cc3c(c4c5ccc(O)cc5n1c24)CCNC3 | 5.34
* CC1(C)CC(=O)n2c3ccccc3c3c4c(cc1c32)CCNC4 | 5.87
* O=C1CCc2cc3c(c4c5ccccc5n1c24)CCNC3 | 5.49
* O=C1CCc2cc3c(c4c5c(O)cccc5n1c24)CCNC3 | 6.28
* COC(=O)c1ccc2c(c1)c1c3c(cc4c1n2C(=O)CC4)CCNC3 | 6.03
* COc1cc2c3c4c(c(COC(C)=O)c5c3n(c2cc1OC)C(=O)CC5)CNCC4 | 7.21
* O=C1CCc2cc3c(c4c5ccccc5n1c24)CNCC3 | 5.57
* O=C1CCc2cc3c(c4c5cc(Cl)ccc5n1c24)CCNC3 | 6.54
* O=C1CCc2cc3c(c4c5cc(O)ccc5n1c24)CNCC3 | 5.81
* COc1ccc2c(c1)c1c3c(cc4c1n2C(=O)CC4)CNCC3 | 6.15
* O=C1CCc2cc3c(c4c5cc(O)ccc5n1c24)CCNC3 | 6.25
* O=C(c1ccc2c(c1)c1c3c(cc4c1n2C(=O)CC4)CNCC3)N1CCOCC1 | 5.21
* O=C1CCc2cc3c(c4c5c(Cl)cccc5n1c24)CCNC3 | 7.12
* COC(=O)c1ccc2c3c4c(cc5c3n(c2c1)C(=O)CC5)CNCC4 | 6.35
* CC1(C)CC(=O)n2c3cccc(O)c3c3c4c(cc1c32)CNCC4 | 5.88
* COc1cc2c3c4c(cc5c3n(c2cc1OC)C(=O)CC5(C)C)CCNC4 | 6.7
* O=C1CCc2cc3c(c4c5cc6c(cc5n1c24)OCO6)CCNC3 | 6.31
